molecular target: Cell division control protein 42 homolog (Homo sapiens); assay: activated Cdc42 mutant GTP binding inhibitors, SAR follow-up, biochemical, pyrazoline analogs, multiplex bead flow cytometry, Ki (AID 2020); settings: bead-based flow cytometry, Bodipy-FL-GTP binding; measured here: Ki calculated from EC50

# COMPOUND, Ki [nM]
data = [
    ("COc1ccc(C2CC(c3cccs3)=NN2c2ccc(S(N)(=O)=O)cc2)cc1 (configuration not stated)", 620),
    ("COc1ccc(C2CC(c3ccccc3)=NN2c2ccc(S(N)(=O)=O)cc2)cc1OC (configuration not stated)", 940),
    ("Cc1ccc(C2CC(c3ccccc3)=NN2c2ccc(S(N)(=O)=O)cc2)cc1 (configuration not stated)", 780),
    ("COc1ccc(C2CC(c3ccc(F)cc3)=NN2c2cccc(F)c2)cc1OC (configuration not stated)", 4880),
    ("NS(=O)(=O)c1ccc(N2N=C(c3ccccc3)CC2c2ccccc2Cl)cc1 (configuration not stated)", 1140),
    ("CN(C)c1ccc(C2CC(c3ccc(Cl)cc3)=NN2c2ccccc2)cc1 (configuration not stated)", 4670),
    ("COc1ccc(C2=NN(c3cccc(F)c3)C(c3ccc(Cl)cc3)C2)cc1 (configuration not stated)", 4860),
    ("COc1ccc(C2CC(c3cccc(Br)c3)=NN2c2ccc(S(N)(=O)=O)cc2)cc1 (configuration not stated)", 320),
    ("NS(=O)(=O)c1ccc(N2N=C(c3ccccc3)CC2c2ccccc2)cc1 (configuration not stated)", 2600),
    ("COc1ccc(C2CC(c3cccc(C)c3)=NN2c2ccc(S(N)(=O)=O)cc2)cc1 (configuration not stated)", 630),
    ("COc1ccc(C2CC(c3cccc(Cl)c3)=NN2c2ccc(S(N)(=O)=O)cc2)cc1 (configuration not stated)", 320),
    ("COc1ccc(C2CC(c3ccccc3)=NN2c2cccc(S(N)(=O)=O)c2)cc1 (configuration not stated)", 10),
    ("COc1ccc(C2CC(c3ccccc3Cl)=NN2c2ccc(S(N)(=O)=O)cc2)cc1 (configuration not stated)", 450),
    ("CN(C)c1ccc(C2CC(c3ccccc3)=NN2c2ccccc2)cc1 (configuration not stated)", 10),
    ("COc1cccc(C2CC(c3ccccc3)=NN2c2ccc(S(N)(=O)=O)cc2)c1 (configuration not stated)", 670),
    ("COc1ccc(C2CC(c3ccccc3F)=NN2c2ccc(S(N)(=O)=O)cc2)cc1 (configuration not stated)", 550),
    ("COc1ccc(C2CC(c3ccc(Cl)cc3)=NN2c2ccc(S(N)(=O)=O)cc2)cc1 (configuration not stated)", 630),
    ("COc1ccc(C2=NN(c3ccccc3)C(c3ccccc3C(F)(F)F)C2)cc1 (configuration not stated)", 3500),
    ("COc1ccc(-c2cc(-c3ccccc3)nn2-c2ccc(S(N)(=O)=O)cc2)cc1", 380),
    ("COc1ccc(C2CC(c3ccccc3OC)=NN2c2ccc(S(N)(=O)=O)cc2)cc1 (configuration not stated)", 850),
    ("COc1ccc(C2CC(c3ccc(F)cc3)=NN2c2ccc(S(N)(=O)=O)cc2)cc1 (configuration not stated)", 850),
    ("NS(=O)(=O)c1ccc(N2N=C(c3ccccc3)CC2c2cccc(Cl)c2)cc1 (configuration not stated)", 560),
    ("CC(=O)Oc1ccc(C2=NN(c3ccccc3)C(c3ccccc3)C2)cc1 (configuration not stated)", 3770),
    ("NS(=O)(=O)c1ccc(N2N=C(c3ccccc3)CC2c2ccc(Cl)cc2)cc1 (configuration not stated)", 560),
    ("NS(=O)(=O)c1ccc(N2N=C(c3ccc(Cl)cc3)CC2c2ccccc2)cc1 (configuration not stated)", 1100),
    ("COc1ccc(C2CC(c3ccc(C)cc3)=NN2c2ccc(S(N)(=O)=O)cc2)cc1 (configuration not stated)", 370),
    ("COc1ccc(C2CC(c3ccsc3)=NN2c2ccc(S(N)(=O)=O)cc2)cc1 (configuration not stated)", 1140),
    ("NS(=O)(=O)c1ccc(N2N=C(c3ccccc3)CC2c2cccc(Br)c2)cc1 (configuration not stated)", 570),
    ("COc1ccc(C2CC(c3cccc(OC)c3)=NN2c2ccc(S(N)(=O)=O)cc2)cc1 (configuration not stated)", 250),
    ("COc1ccc(C2CC(c3cccc(F)c3)=NN2c2ccc(S(N)(=O)=O)cc2)cc1 (configuration not stated)", 530),
    ("COc1ccc(C2=NN(c3ccc(S(N)(=O)=O)cc3)C(c3ccc(OC)cc3)C2)cc1 (configuration not stated)", 390),
    ("COc1ccccc1C1CC(c2ccccc2)=NN1c1ccccc1 (configuration not stated)", 90),
    ("COc1ccc(C2CC(c3ccccc3C)=NN2c2ccc(S(N)(=O)=O)cc2)cc1 (configuration not stated)", 360),
    ("Cc1ccccc1C1CC(c2ccccc2)=NN1c1ccc(S(N)(=O)=O)cc1 (configuration not stated)", 2100),
    ("NS(=O)(=O)c1ccc(N2N=C(c3ccccc3)CC2c2ccc(Br)cc2)cc1 (configuration not stated)", 260),
    ("Cc1cccc(C2CC(c3ccccc3)=NN2c2ccc(S(N)(=O)=O)cc2)c1 (configuration not stated)", 820),
    ("COc1ccc(C2CC(c3ccc(Br)cc3)=NN2c2ccc(S(N)(=O)=O)cc2)cc1 (configuration not stated)", 440),
]

###

molecular target: Cell division control protein 42 homolog (Homo sapiens) (UniProt P60953); assay: activated Cdc42 mutant GTP binding inhibitors, SAR follow-up, biochemical, pyrazoline analogs, multiplex bead flow cytometry, Ki (AID 2020); details: bead-based flow cytometry, Bodipy-FL-GTP binding
Sequence (P60953 whole entry, looked up, change not shown): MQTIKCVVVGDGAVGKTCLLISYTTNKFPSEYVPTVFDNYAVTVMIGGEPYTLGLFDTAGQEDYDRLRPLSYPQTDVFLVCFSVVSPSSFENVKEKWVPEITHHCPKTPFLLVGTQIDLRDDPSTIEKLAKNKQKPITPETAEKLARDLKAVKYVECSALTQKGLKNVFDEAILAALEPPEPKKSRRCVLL
Calls of active or inactive are those of the source.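 How the source made its calls: active means EC50 at or below 30 µM together with a response span of at least a set limit; inactive means the rest.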
QUANTITY_NAME: EC50

# COMPOUND, QUANTITY_NAME, RECORDED_VALUE
rows = [
    ("COc1ccc(C2CC(c3ccccc3C(F)(F)F)=NN2c2ccc(S(N)(=O)=O)cc2)cc1 (centres undefined)", "EC50", "> 30 µM (inactive)"),
    ("COc1ccc(C2CC(c3cccc(F)c3)=NN2c2ccc(S(N)(=O)=O)cc2)cc1 (centres undefined)", "EC50", "3.45 µM"),
    ("COc1ccc(C2CC(C(C)(C)C)=NN2c2ccc(S(N)(=O)=O)cc2)cc1 (centres undefined)", "EC50", "> 30 µM (inactive)"),
    ("Cc1ccccc1N1N=C(c2ccccc2)CC1c1ccc(N(C)C)cc1 (centres undefined)", "EC50", "> 30 µM (inactive)"),
]

###

molecular target: Cell division control protein 42 homolog (Homo sapiens) (UniProt P60953); assay: activated Cdc42 mutant GTP binding inhibitors, SAR follow-up, biochemical, pyrazoline analogs, multiplex bead flow cytometry, Ki (AID 2020); details: bead-based flow cytometry, Bodipy-FL-GTP binding
Activity calls are given as the source filed them.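 The calls were made as follows: active = EC50 at or below 30 µM together with a response span of at least a set limit; inactive = the rest.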

# COMPOUND, EC50
measured = [
    ("COc1ccc(C2CC(c3ccc(Cl)cc3)=NN2c2ccccc2)cc1OC (stereo not given)", "> 30 µM (inactive)"),
    ("NS(=O)(=O)c1ccc(N2N=C(c3ccc(Cl)cc3)CC2c2ccccc2)cc1 (stereo not given)", "7.11 µM"),
    ("FC(F)(F)c1cccc(N2N=C(c3ccc(Cl)cc3)CC2c2ccccc2Cl)c1 (stereo not given)", "> 30 µM (inactive)"),
    ("CCc1ccc(C2=NN(c3ccc(S(N)(=O)=O)cc3)C(c3ccc(F)cc3)C2)cc1 (stereo not given)", "inactive"),
    ("Cc1cccc(C2CC(c3ccccc3)=NN2c2ccc(S(N)(=O)=O)cc2)c1 (stereo not given)", "5.3 µM"),
    ("COc1ccccc1N1N=C(c2ccccc2)CC1c1ccccc1 (stereo not given)", "> 30 µM (inactive)"),
    ("COc1ccc(C2CC(c3ccc(F)cc3)=NN2c2ccc(S(N)(=O)=O)cc2)cc1 (stereo not given)", "5.47 µM"),
    ("COc1ccc(C2CC(c3ccc(C)cc3)=NN2c2ccc(S(N)(=O)=O)cc2)cc1 (stereo not given)", "inactive"),
    ("COc1ccc(C2=NN(c3ccc(Cl)cc3)C(c3ccccc3F)C2)cc1 (stereo not given)", "> 30 µM (inactive)"),
    ("CN(C)c1ccc(C2CC(c3ccccc3)=NN2c2ccccc2)cc1 (stereo not given)", "inactive"),
]
